- TARGET_ENTITY: T1, human CD28 (human, UniProt P10747 19-220, On cells CD28 is a disulfide linked homodimer and a glycoprotein; one copy of the chain is given.)
- T1 construct: also called T-cell specific surface glycoprotein CD28
- EXPERIMENT: flow cytometry, PE-conjugated antibody on fresh human peripheral blood cells, CD3/CD28 gating
Reported S/N Ratio values follow for various binders
QUANTITY: S/N Ratio

exemplary anti-CD28 antibody AB6 (antibody, V domains shown, Mouse hybridoma monoclonal antibody; Conjugated to PE in the staining assays; also called antibody 6; clone 6) VH: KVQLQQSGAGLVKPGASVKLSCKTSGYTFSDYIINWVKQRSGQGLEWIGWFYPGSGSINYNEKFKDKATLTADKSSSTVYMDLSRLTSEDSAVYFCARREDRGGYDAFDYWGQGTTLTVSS VL: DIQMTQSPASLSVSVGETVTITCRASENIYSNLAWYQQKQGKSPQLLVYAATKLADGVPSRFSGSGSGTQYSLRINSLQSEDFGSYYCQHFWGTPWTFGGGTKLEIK
249
exemplary anti-CD28 antibody AB8 (antibody, V domains shown, Mouse hybridoma monoclonal antibody; Conjugated to PE in the staining assays; also called antibody 8; clone 8) VH: EVKLVESGGGLVQPGGSLKLSCAASGFTFSSYTMSWVRQTPEKRLEWVAYISNGGGTTYYPDTVKGRFTISRDNAKNTLYLQMSSLKSEDTAVYYCARHRPYDYDVLDYWGQGTTLTVSS VL: DIVMTQSQKFMSTSVGDRVSITCKASQIVGTDVAWYQQKPGQSPKILIFSASNRYTGVPDRFTGSGSGTDFTLTISNMQSEDLADYFCHQYSRYPYTFGGGTKLEIK
83.2
exemplary anti-CD28 antibody AB4 (antibody, V domains shown, Mouse hybridoma monoclonal antibody; Conjugated to PE in the staining assays; also called antibody 4; clone 4) VH: EVQLQQSGPELEKPGASVKMSCKASGYSFTDYNMNWVKQSNGKSLEWIGIIDPYYGATTYNQRFKGKATLTVDKSSSTAYMQLKSLTSEDSAVYYCARFGFYGAMDYWGQGISVTVSS VL: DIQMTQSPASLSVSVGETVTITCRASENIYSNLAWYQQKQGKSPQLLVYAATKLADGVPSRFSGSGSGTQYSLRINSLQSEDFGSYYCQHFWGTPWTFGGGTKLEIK
193
exemplary anti-CD28 antibody AB5 (antibody, V domains shown, Mouse hybridoma monoclonal antibody; Conjugated to PE in the staining assays; also called antibody 5; clone 5) VH: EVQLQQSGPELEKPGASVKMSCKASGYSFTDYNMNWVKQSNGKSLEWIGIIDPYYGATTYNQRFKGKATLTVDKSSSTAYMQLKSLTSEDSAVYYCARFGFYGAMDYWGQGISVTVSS VL: DVVVTQTPLSLPVSFGDQVSISCRSSQSLANSFGNTYLSWYLHKPGQSPQLLIYGISNRFSGVPDRFSGSGSGTDFTLKISTIKPEDLGVYYCLQGTHQPFTFGSGTTLELK
195
